Provide the recorded n (exclusion parameter) for the entries that follow.
Tested on: calf thymus DNA (CT DNA)
Experiment: Fluorescence titration, binding to calf thymus DNA
Settings: room temperature, BPES buffer pH 7, n=3
Provide the reading as a plain figure in base pairs.

## Task Reported n (exclusion parameter) for calf thymus DNA (CT DNA), given "COc1cccc2c1C(=O)c1c(O)c3c(c(O)c1C2=O)C[C@@](O)(C(C)=O)C[C@@H]3O[C@H]1C[C@H](N)[C@H](O)[C@H](C)O1" ?
## Result 3.6

## Task Reported n (exclusion parameter) for calf thymus DNA (CT DNA), given "COc1cccc2c1C(=O)c1c(O)c3c(c(O)c1C2=O)C[C@@](O)(C(=O)CO)C[C@@H]3O[C@H]1C[C@H](N)[C@H](O)[C@H](C)O1" ?
## Result 3.9

## Task Reported n (exclusion parameter) for calf thymus DNA (CT DNA), given COc1cccc2c1C(=O)c1c(O)c3c(c(O)c1C2=O)C[C@@](O)(C(C)O)C[C@@H]3O[C@H]1C[C@@H](NCc2ccc(O)c(I)c2)[C@H](O)C(C)O1 (mixture of isomers) ?
## Result 3.4

## Task Reported n (exclusion parameter) for calf thymus DNA (CT DNA), given COc1cccc2c1C(=O)c1c(O)c3c(c(O)c1C2=O)C[C@@](O)(C(C)=O)C[C@@H]3O[C@H]1C[C@@H](NCc2ccc(O)c(I)c2)[C@H](O)C(C)O1 (stereo partly shown) ?
## Result 3.7
